Test system: K562
Assay: Induction of specific necrosis in human K562 cells after 24 hrs by annexin V-FITC/propidium iodide staining based flow cytometry
Type: functional
Parameters: concentration or dose not given beside the values
OUTCOME MEASURE: Activity (%)
Give the value in % but do not write % after it.

Prompt: Give Activity for this entry on K562: `NC(=O)c1csc([C@@H]2O[C@H](CO)[C@@H](O)[C@H]2N)n1`
Response: 4.97

Prompt: Give Activity for this entry on K562: NC(=O)c1csc([C@@H]2O[C@H](CO)[C@@H](O)[C@H]2O)n1 [TIAZOFURIN]
Response: 3.76

Prompt: Give Activity for this entry on K562: `CC(=O)N[C@@H]1[C@H](O)[C@@H](CO)O[C@H]1c1nc(C(N)=O)cs1`
Response: 5.88

Prompt: Give Activity for this entry on K562: `COc1cccc(C(=O)N[C@@H]2[C@H](O)[C@@H](CO)O[C@H]2c2nc(C(N)=O)cs2)c1`
Response: 3.68

Prompt: Give Activity for this entry on K562: `NC(=O)c1csc([C@@H]2O[C@H](CO)[C@@H](O)[C@H]2NC(=O)c2ccccc2)n1`
Response: 11.71

Prompt: Give Activity for this entry on K562: `[N-]=[N+]=N[C@@H]1[C@H](O)[C@@H](CO)O[C@H]1c1nc(C(N)=O)cs1`
Response: -0.82

Prompt: Give Activity for this entry on K562: `Cl.NC(=O)c1csc([C@@H]2O[C@H](CO)[C@@H](O)[C@H]2N)n1`
Response: 3.6
